experimental.protocol: Cytotoxicity against human RD cells by MTS assay
Type: cell-based
conditions.used: read-out: CCIC50
Listed here are compounds together with their documented CC50.

# chemical.string, inequality.sign, CC50 / µM
rows = [
    ("Cc1cn(CCCNC(=O)c2ccc(O)c3[nH]c(-c4cccs4)nc23)cn1", ">", 100),
    ("Cc1ccc(S(=O)(=O)Nc2ccc(CCNC(=O)c3ccc(O)c4[nH]c(-c5ccc(F)cc5)nc34)cc2)cc1", "=", 17.5),
    ("CCN1CCN(C(=O)c2ccc(CCNC(=O)c3ccc(O)c4nc(-c5cccs5)[nH]c34)cc2)CC1", "=", 51),
    ("O=C(NCCCn1cnc(Cl)c1Cl)c1ccc(O)c2nc(-c3ccc(Cl)cc3Cl)[nH]c12", "=", 60),
    ("O=C(NCCCn1ccnc1)c1ccc(O)c2[nH]c(-c3ccc(Cl)cc3Cl)nc12", "=", 45),
    ("O=C(NCCCn1cnc(Cl)c1Cl)c1ccc(O)c2[nH]c(-c3cccs3)nc12", ">", 100),
    ("O=C(O)COc1cccc(CCCNC(=O)c2ccc(O)c3nc(-c4ccc(Cl)cc4)[nH]c23)c1", "=", 17),
    ("CS(=O)(=O)Nc1ccc(CCNC(=O)c2ccc(O)c3[nH]c(-c4ccc(Cl)cc4)nc23)cc1", "=", 28),
    ("O=C(NCCCn1ccnc1)c1ccc(O)c2nc(-c3ccc(F)c(Cl)c3)[nH]c12", ">", 100),
    ("O=C(NCCCn1cnc(Cl)c1Cl)c1ccc(O)c2nc(-c3ccco3)[nH]c12", "=", 70),
]

###

Listed here are compounds together with their documented pEC50.
test.system: Glycogen synthase kinase-3 beta (Homo sapiens, UniProt P49841)
Sequence (P49841 whole entry): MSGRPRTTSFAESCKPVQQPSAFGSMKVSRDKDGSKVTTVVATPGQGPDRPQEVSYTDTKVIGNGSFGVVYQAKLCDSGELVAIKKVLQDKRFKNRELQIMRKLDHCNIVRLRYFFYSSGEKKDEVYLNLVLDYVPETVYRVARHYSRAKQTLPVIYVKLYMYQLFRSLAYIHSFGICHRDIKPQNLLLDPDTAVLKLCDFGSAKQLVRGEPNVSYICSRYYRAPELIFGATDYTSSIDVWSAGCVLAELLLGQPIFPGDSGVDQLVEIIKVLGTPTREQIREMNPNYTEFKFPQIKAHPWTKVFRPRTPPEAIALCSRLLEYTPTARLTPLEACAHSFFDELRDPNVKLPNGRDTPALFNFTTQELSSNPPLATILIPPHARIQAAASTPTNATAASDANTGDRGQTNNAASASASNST
experimental.protocol: Inhibition of GSK3-beta in human RD cells
Assay type: cell-based
pEC50: −log10 of the molar value.

# chemical.string, pEC50
records = [
    ("CS(=O)(=O)Nc1ccc(CCNC(=O)c2ccc(O)c3[nH]c(-c4ccc(F)cc4)nc23)cc1", 6.40),
    ("CS(=O)(=O)Nc1ccc(CCNC(=O)c2ccc(O)c3nc(-c4ccc(F)cc4F)[nH]c23)cc1", 6.24),
    ("O=C(O)COc1cccc(CCCNC(=O)c2ccc(O)c3nc(-c4ccc(Cl)cc4)[nH]c23)c1", 6.60),
    ("Cc1cn(CCCNC(=O)c2ccc(O)c3[nH]c(-c4cccs4)nc23)cn1", 6.51),
]

###

Listed here are compounds together with their documented Activity.
experimental.protocol: Inhibition of AKT assessed as residual activity at 5 uM

# chemical.string, reading.unit, Activity
records = [
    ("O=C(NCCCn1cnc(Cl)c1Cl)c1ccc(O)c2[nH]c(-c3ccco3)nc12", "%", 92.3),
    ("O=C(O)COc1cccc(CCCNC(=O)c2ccc(O)c3[nH]c(-c4ccc(Cl)cc4)nc23)c1", "%", 100),
    ("O=C(NCCCn1ccnc1)c1ccc(O)c2[nH]c(-c3ccc(F)c(Cl)c3)nc12", "%", 83.9),
    ("CCN1CCN(C(=O)c2ccc(CCNC(=O)c3ccc(O)c4[nH]c(-c5cccs5)nc34)cc2)CC1", "%", 96),
]

###

test.system: Inhibitor of nuclear factor kappa-B kinase subunit beta (Homo sapiens) (UniProt O14920)
Sequence (whole entry): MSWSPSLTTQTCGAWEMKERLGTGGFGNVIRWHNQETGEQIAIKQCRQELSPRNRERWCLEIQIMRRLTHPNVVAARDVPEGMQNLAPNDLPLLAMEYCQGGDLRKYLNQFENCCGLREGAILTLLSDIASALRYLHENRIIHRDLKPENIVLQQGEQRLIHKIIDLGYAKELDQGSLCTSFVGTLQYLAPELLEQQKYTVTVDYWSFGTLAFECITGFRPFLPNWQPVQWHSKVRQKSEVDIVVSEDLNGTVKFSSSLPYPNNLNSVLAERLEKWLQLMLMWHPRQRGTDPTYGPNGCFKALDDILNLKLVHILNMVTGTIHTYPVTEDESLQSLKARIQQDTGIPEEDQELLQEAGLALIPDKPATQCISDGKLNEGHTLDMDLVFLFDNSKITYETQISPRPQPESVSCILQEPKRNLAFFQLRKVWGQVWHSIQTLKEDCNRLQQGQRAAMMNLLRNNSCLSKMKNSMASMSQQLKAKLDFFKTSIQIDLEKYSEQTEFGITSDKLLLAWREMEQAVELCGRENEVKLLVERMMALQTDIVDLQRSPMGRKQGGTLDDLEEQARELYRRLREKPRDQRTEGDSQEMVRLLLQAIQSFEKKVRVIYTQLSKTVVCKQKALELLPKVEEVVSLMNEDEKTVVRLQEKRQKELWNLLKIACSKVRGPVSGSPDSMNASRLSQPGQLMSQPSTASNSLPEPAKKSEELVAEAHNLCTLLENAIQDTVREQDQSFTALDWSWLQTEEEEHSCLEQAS
experimental.protocol: Inhibition of IKK-beta assessed as residual activity at 5 uM

# chemical.string, Activity (%)
measured = [
    ("CCN1CCN(C(=O)c2ccc(CCNC(=O)c3ccc(O)c4[nH]c(-c5cccs5)nc34)cc2)CC1", 72.7),
    ("O=C(NCCCn1cnc(Cl)c1Cl)c1ccc(O)c2[nH]c(-c3ccc(Cl)cc3Cl)nc12", 80.7),
    ("CS(=O)(=O)Nc1ccc(CCNC(=O)c2ccc(O)c3[nH]c(-c4ccc(F)cc4F)nc23)cc1", 93.1),
    ("O=C(NCCCn1ccnc1)c1ccc(O)c2[nH]c(-c3ccc(F)c(Cl)c3)nc12", 80),
    ("O=C(O)COc1cccc(CCCNC(=O)c2ccc(O)c3[nH]c(-c4ccc(Cl)cc4)nc23)c1", 87.3),
    ("O=C(NCCCn1cnc(Cl)c1Cl)c1ccc(O)c2[nH]c(-c3ccco3)nc12", 74.7),
]

###

test.system: Mitogen-activated protein kinase 3 (Homo sapiens)
experimental.protocol: Inhibition of ERK1 assessed as residual activity at 5 uM
Rule: Activity below 70% gives fulfilled, anything at or above gives not fulfilled.

# chemical.string, category.label
rows = [
    ("O=C(NCCCn1cnc(Cl)c1Cl)c1ccc(O)c2[nH]c(-c3ccc(Cl)cc3Cl)nc12", "not fulfilled"),
    ("O=C(O)COc1cccc(CCCNC(=O)c2ccc(O)c3[nH]c(-c4ccc(Cl)cc4)nc23)c1", "not fulfilled"),
    ("O=C(NCCCn1cnc(Cl)c1Cl)c1ccc(O)c2[nH]c(-c3ccco3)nc12", "fulfilled"),
    ("CCN1CCN(C(=O)c2ccc(CCNC(=O)c3ccc(O)c4[nH]c(-c5cccs5)nc34)cc2)CC1", "not fulfilled"),
    ("CS(=O)(=O)Nc1ccc(CCNC(=O)c2ccc(O)c3[nH]c(-c4ccc(F)cc4F)nc23)cc1", "not fulfilled"),
    ("O=C(NCCCn1ccnc1)c1ccc(O)c2[nH]c(-c3ccc(F)c(Cl)c3)nc12", "fulfilled"),
]

###

test.system: Cyclin-dependent kinase 4 (Homo sapiens)
experimental.protocol: Inhibition of CDK4 assessed as residual activity at 5 uM
assay.readout: Activity

# chemical.string, recorded.measurement
data = [
    ("O=C(O)COc1cccc(CCCNC(=O)c2ccc(O)c3[nH]c(-c4ccc(Cl)cc4)nc23)c1", "58.6%"),
    ("O=C(NCCCn1ccnc1)c1ccc(O)c2[nH]c(-c3ccc(F)c(Cl)c3)nc12", "52.4%"),
    ("CS(=O)(=O)Nc1ccc(CCNC(=O)c2ccc(O)c3[nH]c(-c4ccc(F)cc4F)nc23)cc1", "49.2%"),
    ("O=C(NCCCn1cnc(Cl)c1Cl)c1ccc(O)c2[nH]c(-c3ccco3)nc12", "38.6%"),
    ("CCN1CCN(C(=O)c2ccc(CCNC(=O)c3ccc(O)c4[nH]c(-c5cccs5)nc34)cc2)CC1", "68.2%"),
    ("O=C(NCCCn1cnc(Cl)c1Cl)c1ccc(O)c2[nH]c(-c3ccc(Cl)cc3Cl)nc12", "74.9%"),
]

###

Listed here are compounds together with their documented pEC50.
test.system: Glycogen synthase kinase-3 beta (Homo sapiens)
experimental.protocol: Inhibition of GSK3-beta in human RD cells
Format: cell-based
pEC50: −log10 of the molar value.
assay.readout: pEC50

# chemical.string, assay.readout, recorded.measurement
data = [
    ("O=C(NCCCn1cnc(Cl)c1Cl)c1ccc(O)c2nc(-c3ccc(Cl)cc3Cl)[nH]c12", "pEC50", 6.96),
    ("CS(=O)(=O)Nc1ccc(CCNC(=O)c2ccc(O)c3[nH]c(-c4ccc(Cl)cc4)nc23)cc1", "pEC50", 6.92),
    ("Cc1ccc(S(=O)(=O)Nc2ccc(CCNC(=O)c3ccc(O)c4[nH]c(-c5ccc(F)cc5)nc34)cc2)cc1", "pEC50", 7.02),
]
